- experimental details: The compound was tested for its inhibitory activity against platelet aggregation
pIC50: −log10 of the molar value.
Outcome label depends on pIC50 relative to 6: at/above gives 1.0, below gives 0.0.

// inclusive: pIC50 at least 6? input: COC(/C=C/c1ccc(C(=N)N)cc1)C(C)(C)C(=O)N1CCC(CC(=O)O)CC1 (stereo unspecified)
1.0

// inclusive: pIC50 at least 6? input: CC(C)C[C@@H](NC(=O)c1ccc(C(=N)N)cc1)C(C)(C)C(=O)N1CCC(CC(=O)O)CC1
1.0

// inclusive: pIC50 at least 6? input: CN(CC(=O)N1CCC(C(=O)O)CC1)C(=O)c1ccc(N=C(N)N)cc1
0.0

// inclusive: pIC50 at least 6? input: CCCCC[C@@H](NC(=O)c1ccc(C(=N)N)cc1)C(C)(C)C(=O)N1CCC(CC(=O)O)CC1
1.0

// inclusive: pIC50 at least 6? input: CC(C)(C(=O)N1CCC(CC(=O)O)CC1)[C@H](NC(=O)c1ccc(C(=N)N)cc1)c1ccc(O)cc1
1.0

// inclusive: pIC50 at least 6? input: CN(CC(=O)N1CCC(C(=O)O)CC1)C(=O)c1ccc(CNC(=N)N)cc1
0.0

// inclusive: pIC50 at least 6? input: CCOC(/C=C/c1ccc(C(=N)N)cc1)C(C)(C)C(=O)N1CCC(CC(=O)O)CC1 (stereo unspecified)
1.0

// inclusive: pIC50 at least 6? input: CC(C)(C(=O)/C=C/c1ccc(C(=N)N)cc1)C(=O)N1CCC(CC(=O)O)CC1
0.0

// inclusive: pIC50 at least 6? input: N=C(N)c1ccc(C(=O)N[C@@H](CC(=O)N2CCC(CC(=O)O)CC2)C(=O)Oc2ccccc2)cc1
0.0

// inclusive: pIC50 at least 6? input: NC(N)=Nc1ccc(C(=O)NCCC(=O)N2CCC(C(=O)O)CC2)cc1
0.0

// inclusive: pIC50 at least 6? input: CC[C@@H](NC(=O)c1ccc(C(=N)N2CCCC2)cc1F)C(C)(C)C(=O)N1CCC(CC(=O)O)CC1
1.0

// inclusive: pIC50 at least 6? input: C[C@@H](CC(=O)N1CCC(CC(=O)O)CC1)NC(=O)c1ccc(C(=N)N)cc1
0.0

// inclusive: pIC50 at least 6? input: CCCC[C@@H](NC(=O)c1ccc(C(=N)N)cc1F)C(C)(C)C(=O)N1CCC(CC(=O)O)CC1
1.0

// inclusive: pIC50 at least 6? input: CC(C)(CNC(=O)c1ccc(C(=N)N)cc1)C(=O)N1CCC(CC(=O)O)CC1
1.0

// inclusive: pIC50 at least 6? input: C[C@@H](NC(=O)c1ccc(C(=N)N)cc1)C(C)(C)C(=O)N1CCC(CC(=O)O)CC1
1.0

// inclusive: pIC50 at least 6? input: CC[C@@H](NC(=O)c1ccc(C(=N)N2CCN(C)CC2)cc1F)C(C)(C)C(=O)N1CCC(CC(=O)O)CC1
1.0

// inclusive: pIC50 at least 6? input: CC(C)(C(=O)N1CCC(CC(=O)O)CC1)C(/C=C/c1ccc(C(=N)N)cc1)OCc1ccccc1 (stereo unspecified)
1.0

// inclusive: pIC50 at least 6? input: CC[C@@H](NC(=O)c1ccc(C(=N)N2CCN(c3ccc(F)cc3)CC2)cc1F)C(C)(C)C(=O)N1CCC(CC(=O)O)CC1
1.0

// inclusive: pIC50 at least 6? input: N=C(N)c1ccc(C(=O)NCCC(=O)N2CCC(COC(=O)O)CC2)cc1
0.0

// inclusive: pIC50 at least 6? input: C[C@@H](NC(=O)c1ccc(C(=N)N)cc1F)C(C)(C)C(=O)N1CCC(CC(=O)O)CC1
1.0

// inclusive: pIC50 at least 6? input: CCC[C@@H](NC(=O)c1ccc(C(=N)N)cc1)C(C)(C)C(=O)N1CCC(CC(=O)O)CC1
1.0

// inclusive: pIC50 at least 6? input: CC(C)(/C=C/C(=O)c1ccc(C(=N)N)cc1)C(=O)N1CCC(CC(=O)O)CC1
1.0

// inclusive: pIC50 at least 6? input: CN(CCC(=O)N1CCC(CC(=O)O)CC1)C(=O)c1ccc(C(=N)N)cc1
0.0

// inclusive: pIC50 at least 6? input: CC[C@@H](NC(=O)c1ccc(C(=N)N2CCC(O)CC2)cc1F)C(C)(C)C(=O)N1CCC(CC(=O)O)CC1
1.0

// inclusive: pIC50 at least 6? input: CC(C)(C(=O)N1CCC(CC(=O)O)CC1)[C@H](NC(=O)c1ccc(C(=N)N)cc1)c1ccc2ccccc2c1
1.0

// inclusive: pIC50 at least 6? input: CC(C)(C(=O)N1CCC(CC(=O)O)CC1)C(O)/C=C/c1ccc(C(=N)N)cc1 (stereo unspecified)
1.0

// inclusive: pIC50 at least 6? input: CC[C@@H](NC(=O)c1ccc(C(=N)N)cc1)C(C)(C)C(=O)N1CCC(CC(=O)O)CC1
1.0

// inclusive: pIC50 at least 6? input: C[C@H](NC(=O)c1ccc(CNC(=N)N)cc1)C(=O)N1CCC(C(=O)O)CC1
0.0

// inclusive: pIC50 at least 6? input: CC[C@@H](NC(=O)c1ccc(C(=N)N2CCSC2)cc1F)C(C)(C)C(=O)N1CCC(CC(=O)O)CC1
1.0

// inclusive: pIC50 at least 6? input: N=C(N)c1ccc(C(=O)NCCC(=O)N2CCC(C(=O)O)CC2)cc1
0.0

// inclusive: pIC50 at least 6? input: C=CCOC(/C=C/c1ccc(C(=N)N)cc1)C(C)(C)C(=O)N1CCC(CC(=O)O)CC1 (stereo unspecified)
1.0

// inclusive: pIC50 at least 6? input: CCCC[C@@H](NC(=O)c1ccc(C(=N)N)cc1)C(C)(C)C(=O)N1CCC(CC(=O)O)CC1
1.0

// inclusive: pIC50 at least 6? input: CN(CC(=O)N1CCC(CC(=O)O)CC1)C(=O)c1ccc(N=C(N)N)cc1
0.0

// inclusive: pIC50 at least 6? input: CC(C)[C@@H](CC(=O)N1CCC(CC(=O)O)CC1)NC(=O)c1ccc(C(=N)N)cc1
0.0

// inclusive: pIC50 at least 6? input: CC[C@@H](NC(=O)c1ccc(C(=N)N2CCOCC2)cc1F)C(C)(C)C(=O)N1CCC(CC(=O)O)CC1
1.0

###

I'd be grateful if you could share measured IC50 for these entries.
- experimental details: The compound was tested for its inhibitory activity against platelet aggregation
Please append the unit to your numeric answer.

Find the measured IC50 of COC(CCc1ccc(C(=N)N)cc1)C(C)(C)C(=O)N1CCC(CC(=O)O)CC1 (configuration not stated) and report it.
240 nM

Find the measured IC50 of CC(C)(C(=O)N1CCC(CC(=O)O)CC1)[C@H](NC(=O)c1ccc(C(=N)N)cc1)c1cccc(Cl)c1 and report it.
126 nM

Find the measured IC50 of COC(=O)C1CCN(C(=O)CN(C)C(=O)c2ccc(C(=N)N)cc2)CC1 and report it.
331000 nM

Find the measured IC50 of N=C(N)c1ccc(C(=O)N[C@H](CC(=O)N2CCC(CC(=O)O)CC2)c2ccccc2)cc1 and report it.
5250 nM

Find the measured IC50 of C/C=C/[C@@H](NC(=O)c1ccc(C(=N)N)cc1)C(C)(C)C(=O)N1CCC(CC(=O)O)CC1 and report it.
85 nM

Find the measured IC50 of CN(CC(=O)N1CCC(CC(=O)O)CC1)C(=O)c1ccc(C(=N)N)cc1 and report it.
7590 nM

Find the measured IC50 of C[C@H](NC(=O)c1ccc(C(=N)N)cc1)C(=O)N1CCC(CC(=O)O)CC1 and report it.
30200 nM

Find the measured IC50 of CN(C(=O)c1ccc(C(=N)N)cc1)[C@H](c1ccccc1)C(C)(C)C(=O)N1CCC(CC(=O)O)CC1 and report it.
151 nM

Find the measured IC50 of CC(C)(CCC(=O)c1ccc(C(=N)N)cc1)C(=O)N1CCC(CC(=O)O)CC1 and report it.
631 nM

Find the measured IC50 of CCCCNC(=N)c1ccc(C(=O)N[C@H](CC)C(C)(C)C(=O)N2CCC(CC(=O)O)CC2)c(F)c1 and report it.
501 nM

Find the measured IC50 of CC(C)(C(=O)N1CCC(CC(=O)O)CC1)[C@H](NC(=O)c1ccc(C(=N)N)cc1)c1ccccc1 and report it.
115 nM

Find the measured IC50 of C#CCN(C(=O)c1ccc(C(=N)N)cc1)[C@H](CCCC)C(C)(C)C(=O)N1CCC(CC(=O)O)CC1 and report it.
708 nM

###

I'd be grateful if you could share measured IC50 for these entries.
- experimental details: The compound was tested for its inhibitory activity against platelet aggregation
A number alone suffices; assume nM.

Find the measured IC50 of CC(C)(C(=O)N1CCC(CC(=O)O)CC1)[C@H](NC(=O)c1ccc(C(=N)N)cc1)c1ccc(Cl)cc1 and report it.
331

Find the measured IC50 of CC(C)(C(=O)N1CCC(CC(=O)O)CC1)[C@@H](CCc1ccccc1)NC(=O)c1ccc(C(=N)N)cc1 and report it.
79

Find the measured IC50 of CC(C)(C(=O)N1CCC(CC(=O)O)CC1)[C@H](NC(=O)c1ccc(C(=N)N)cc1Cl)c1ccccc1 and report it.
186

Find the measured IC50 of CC[C@@H](NC(=O)c1ccc(C(=N)N)cc1F)C(C)(C)C(=O)N1CCC(CC(=O)O)CC1 and report it.
31

Find the measured IC50 of C[C@H](NC(=O)c1ccc(C(=N)N)cc1)C(=O)N1CCC(C(=O)O)CC1 and report it.
110000

Find the measured IC50 of CC(C)[C@@H](NC(=O)c1ccc(C(=N)N)cc1)C(C)(C)C(=O)N1CCC(CC(=O)O)CC1 and report it.
76

Find the measured IC50 of N=C(N)c1ccc(C(=O)N[C@@H](CC(=O)N2CCC(CC(=O)O)CC2)C(=O)OC2CCCCC2)cc1 and report it.
1900

Find the measured IC50 of CC(C)(C(=O)N1CCC(CC(=O)O)CC1)[C@H](NC(=O)c1ccc(C(=N)N)cc1)c1cccc(O)c1 and report it.
38

Measured values drawn from BindingDB's records for doi:10.1016/s0960-894x(00)00113-x for this set.
